molecular target: gH/gL/UL128/UL130/UL131A pentamer complex (PC) of HCMV strain TB40/E virus (human cytomegalovirus strain TB40/E); test: cell-based or functional assay
OBSERVED_PROPERTY: IC50, neutralization of TB40/E infection of MRC-5

{"BINDER": "54E11 (antibody, V domains shown, also called NAb 54E11) VH: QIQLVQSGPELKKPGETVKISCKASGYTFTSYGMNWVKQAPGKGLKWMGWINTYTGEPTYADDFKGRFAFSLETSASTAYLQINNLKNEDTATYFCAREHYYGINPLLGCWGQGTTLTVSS VL: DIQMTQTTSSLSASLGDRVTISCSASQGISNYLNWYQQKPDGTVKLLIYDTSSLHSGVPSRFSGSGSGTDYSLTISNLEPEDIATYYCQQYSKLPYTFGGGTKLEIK", "OBS_VALUE": "> 25 µg/mL"}
